inhibition at 10 µM overview
tested.on: CYP1A2 (Homo sapiens, UniProt P05177)
Sequence (P05177 whole entry): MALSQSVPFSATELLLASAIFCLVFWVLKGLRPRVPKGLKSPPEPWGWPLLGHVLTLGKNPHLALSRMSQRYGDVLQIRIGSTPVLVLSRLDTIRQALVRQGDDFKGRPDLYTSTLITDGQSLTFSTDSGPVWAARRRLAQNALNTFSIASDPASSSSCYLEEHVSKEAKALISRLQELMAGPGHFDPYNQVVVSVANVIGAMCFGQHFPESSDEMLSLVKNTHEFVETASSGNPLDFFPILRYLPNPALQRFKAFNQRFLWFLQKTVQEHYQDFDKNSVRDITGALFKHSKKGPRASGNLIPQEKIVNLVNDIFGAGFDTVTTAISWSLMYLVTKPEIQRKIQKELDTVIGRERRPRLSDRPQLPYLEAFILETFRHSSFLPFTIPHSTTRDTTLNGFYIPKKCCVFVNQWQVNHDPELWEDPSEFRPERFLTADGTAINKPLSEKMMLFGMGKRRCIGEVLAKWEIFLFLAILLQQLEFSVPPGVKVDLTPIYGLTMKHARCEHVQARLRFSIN
experiment.notes: in vitro
Set-up: cytochrome P450 isoform inhibition liability assay
Write down the numeric answer in % and omit the unit.

As a guide, the following entries are already answered.
{"molecule": "Nc1nnc(CCc2ccccc2)s1 [3g]", "inhibition at 10 µM, %": -14.9}
{"molecule": "Nc1nnc(CCC(=O)c2ccccc2)s1 [3j]", "inhibition at 10 µM, %": -13.4}
{"molecule": "COc1cccc(OC)c1-c1nnc(N)s1 [1g]", "inhibition at 10 µM, %": 8.9}
{"molecule": "COc1cc(CNc2nnc(N)s2)cc(OC)c1OC [4k]", "inhibition at 10 µM, %": 22.3}
{"molecule": "Nc1nnc(NCCc2ccccc2)s1 [4n]", "inhibition at 10 µM, %": 22.7}

Item Nc1nnc(NCCCc2ccccc2)s1 [4q] has what recorded inhibition at 10 µM?
22.1

Also need N#Cc1ccc(Cc2ccccc2-c2nnc(N)s2)cc1 [1n] , thanks.
56.2

What about CN(C)C(=O)NCc1ccc(-c2nnc(N)s2)cc1 [1p] ?
20.9

Then CN(C)C(=O)NCc1cccc(-c2nnc(N)s2)c1 [1q] ?
7

Same question for COc1ccc(CNc2nnc(N)s2)cc1OC [4j] please.
23.9

Queued: Nc1nnc(-c2ccc(-c3nnc(N)s3)c(N)c2)s1 [1o]
9.5

Also check Nc1nnc(NCc2ccccc2)s1 [4b]
-17.2

Moving on to the next molecule: Nc1nnc(CCC(=O)c2cccs2)s1 [3k]
4.9

###

Listed here are compounds together with their documented inhibition at 10 µM.
tested.on: UniProtKB P11712
Sequence (P11712 whole entry): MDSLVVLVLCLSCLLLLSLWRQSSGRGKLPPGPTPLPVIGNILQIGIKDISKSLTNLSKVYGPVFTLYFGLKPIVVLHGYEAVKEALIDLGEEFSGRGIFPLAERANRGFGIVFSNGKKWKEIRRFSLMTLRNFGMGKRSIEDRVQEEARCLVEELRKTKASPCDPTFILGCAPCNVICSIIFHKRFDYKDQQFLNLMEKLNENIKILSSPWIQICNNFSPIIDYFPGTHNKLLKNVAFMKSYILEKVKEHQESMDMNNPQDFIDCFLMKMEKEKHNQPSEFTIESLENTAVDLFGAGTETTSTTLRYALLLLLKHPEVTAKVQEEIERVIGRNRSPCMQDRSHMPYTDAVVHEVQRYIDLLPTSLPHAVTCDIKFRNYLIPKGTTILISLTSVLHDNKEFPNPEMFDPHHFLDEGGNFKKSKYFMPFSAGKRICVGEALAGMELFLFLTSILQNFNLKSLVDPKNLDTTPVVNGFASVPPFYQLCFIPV
experiment.notes: in vitro
Set-up: cytochrome P450 isoform inhibition liability assay
# unit: % | format: bare number

Solved cases (3 shown):
{"compound": "Nc1nnc(NCc2cccs2)s1", "tested.on": "UniProtKB P11712", "endpoint.result": -7.7}
{"compound": "COc1ccc(CNc2nnc(N)s2)cc1OC", "tested.on": "UniProtKB P11712", "endpoint.result": 26.2}
{"compound": "Nc1nnc(NCc2ccc(Cl)c(Cl)c2)s1", "tested.on": "UniProtKB P11712", "endpoint.result": 17.6}

Given the entry Nc1nnc(-c2ccc(O)c(O)c2)s1 [1d, 3′,4′-dihydroxy-phenyl-1,3,4-thiadiazole] , report its measured inhibition at 10 µM.
-19.5

Proceed to Nc1nnc(NCc2ccc(C(F)(F)F)cc2)s1
19.5

Would you kindly repeat that for Nc1nnc(Cc2ccccc2)s1 ?
-20.4

Now try Nc1nnc(-c2cc(O)c(O)c(O)c2)s1 .
38.2

Can you handle COc1ccccc1-c1nnc(N)s1 next?
-32.3

###

tested.on: CYP2D6 (Homo sapiens)
Sequence (P10635 whole entry): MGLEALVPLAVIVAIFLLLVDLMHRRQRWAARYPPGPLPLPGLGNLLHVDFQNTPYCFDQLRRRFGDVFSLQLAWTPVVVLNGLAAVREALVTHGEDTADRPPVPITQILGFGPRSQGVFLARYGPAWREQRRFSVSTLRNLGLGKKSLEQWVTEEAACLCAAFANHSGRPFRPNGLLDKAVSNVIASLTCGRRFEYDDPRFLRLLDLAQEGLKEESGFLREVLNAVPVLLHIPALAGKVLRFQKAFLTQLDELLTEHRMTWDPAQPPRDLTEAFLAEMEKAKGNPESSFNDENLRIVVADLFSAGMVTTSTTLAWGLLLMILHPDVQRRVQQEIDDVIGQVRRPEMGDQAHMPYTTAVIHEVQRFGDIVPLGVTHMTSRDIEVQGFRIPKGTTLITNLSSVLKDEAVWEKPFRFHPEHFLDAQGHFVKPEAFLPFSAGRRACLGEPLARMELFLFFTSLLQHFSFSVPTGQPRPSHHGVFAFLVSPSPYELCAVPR
experiment.notes: in vitro
Set-up: cytochrome P450 isoform inhibition liability assay
test.readout: inhibition at 10 µM (%)
// return numeric value only (unit: %, not printed)

{"compound": "Nc1nnc(-c2cccc(-c3cccc(C(F)(F)F)c3)c2)s1 [2d]", "inhibition at 10 µM, %": 31.1}
{"compound": "Nc1nnc(CCC(=O)c2ccccc2)s1 [3j]", "inhibition at 10 µM, %": -30.6}
{"compound": "Nc1nnc(N)s1 [4a]", "inhibition at 10 µM, %": -15.9}

// switching to the query compound
So what does the record say about inhibition at 10 µM for Nc1nnc(NCCc2ccccc2)s1 [4n] ?
103
